Test system: COLO 205 colon
measurement protocol: NCI-60 one-dose screen, 48 h (100 = growth as untreated, 0 = no growth, -100 = all killed)
test settings: 10 µM unless noted
About 83,000 compounds went through this panel and 20% of them were active in at least one assay; those are over-represented in the sample as a whole.
Kindly state growth for each of the entries shown.
Give bare numbers, in %.

Solved cases (4 shown):
>>> assay_result("COc1cc(CN2CCO[C@H](COc3cccc(F)c3)C2)ccc1Cl")
12.5
>>> assay_result("O=S(=O)(NCC[C@@H]1C[C@H]1c1ccc2ccccc2c1)c1ccc(C(F)(F)F)cc1")
105
>>> assay_result("Fc1ccc(-c2ccnc3nc(-c4ccncc4)nn23)cc1")
108
>>> assay_result("O=c1c2sc3ncc(Cl)cc3c2nnn1-c1cccc(Cl)c1")
89.4

# return growth for each item in the list
1. CCCC(CCC)NCC(O)c1cc(-c2ccc(C(F)(F)F)cc2)nc(C(F)(F)F)c1 (stereo unspecified)
2. CC1=NOCC(=O)N1
3. Cc1cc(NC(=O)c2ccc(N)cc2)ccc1N=Nc1ccc2cc(S(=O)(=O)O)cc(S(=O)(=O)O)c2c1
4. Cc1cc(NC(=O)C2c3ccccc3C(=O)N(CC(C)C)C2c2cccs2)no1 (stereo unspecified)
5. Nc1nc(N)c2c(n1)NC(c1sc(Cl)nc1Cl)CC(c1ccc3c(c1)OCO3)=N2 (stereo unspecified)
6. COc1c(C(=O)/C=C/c2ccc(C)o2)c(O)cc2occc12
7. COc1cc2c(cc1I)-c1c(cc(OC)c(OC)c1OC)CC[C@@H]2NC(C)=O

Result:
[-83.5, 108, 109, -83.9, 7.12, 104, -52.8]

Would you be so kind as to report growth for each listed record?
1. COc1ccc(NC(=O)/C=C/c2ccc(NC(=O)N3CCCC3)cc2)cn1
2. N#Cc1c(N)n(C2OC(CO)C(O)C2O)c2ncnc(N)c12 (stereo unspecified)
3. O=c1cc(N2CCOCC2)oc2c(-c3ccc4c(c3)OCCO4)csc12
4. COc1ccc(C(=O)c2c(N)nc3n2CCCC3)cc1OC
5. Nc1cccc(S(=O)(=O)c2cccc(N)c2)c1
6. COCCn1c(Nc2ccc(C(=O)NO)cc2)nc2ccccc21

Result:
1. 112
2. -32.8
3. 5.88
4. 107
5. 117
6. 50.7

Parameter requested: growth. Apply to each item below.
1. COc1cc(C(=O)/C=C/c2cn(-c3ccccc3)nc2-c2cccc(Nc3ccnc4cc(Cl)ccc34)c2)cc(OC)c1OC
2. CC1=C(C(=O)Nc2ccc(F)cc2)C(c2ccc(C)cc2)C2=C(CC(C)(C)CC2=O)N1 (stereo unspecified)
3. O=c1c2sc3ccccc3c2nnn1-c1ccc(F)c(Cl)c1

Result:
[88.9, 105, 41.9]

For each of the molecules below, state growth.
1. COC(=O)/C=C/c1cc(OC(C)=O)c2c(c1)[C@@H](C(=O)OC)[C@H](c1ccc(OC(C)=O)c(OC(C)=O)c1)O2
2. CC(=O)c1nn(-c2ccccc2)/c(=N\N=C\c2coc3ccc(F)cc3c2=O)s1
3. CN=C1C=C/C(=N/N=c2/ccn(O)cc2C)C=C1C
4. C/C(=C\C(=N\N=C(N)N)c1ccc(Cl)cc1)c1ccc(Cl)cc1
5. Nc1n[nH]c2ccc([C@@H]3Nc4c(F)cc5[nH]ncc5c4[C@H]4C5CCC(C5)[C@@H]34)cc12 (stereo partly specified)
6. C=CCN(CCOC(=O)c1ccc([N+](=O)[O-])cc1)CCOC(=O)c1ccc([N+](=O)[O-])cc1
7. Cc1cc(C#Cc2ccccc2)ccc1-n1c(/C=C/c2ccc(F)cc2)nc2ccccc2c1=O

Result:
47.1
111
138
-90.2
-0.831
112
53.3

The origin of these recorded values is PubChem BioAssay (NCI).
